ASSAY_EXPLANATION: Antioxidant activity assessed as trolox equivalents of ABTS radical scavenging activity by TEAC assay
Format: functional
ASSAY_METRIC: Activity

• COc1ccccc1-c1c(O)c2ccccc2oc1=O = 567 µmolequiv/g
• COc1ccc(-c2c(O)c3ccccc3oc2=O)cc1 = 699 µmolequiv/g
• O=c1oc2ccccc2c(O)c1-c1ccccc1 = 46.6 µmolequiv/g
• O=c1oc2ccccc2c(O)c1-c1cccc2ccccc12 = 56.8 µmolequiv/g
• O=c1oc2ccccc2c(O)c1-c1ccccc1Cl = 50 µmolequiv/g
• O=c1cc(O)c2ccccc2o1 [4-HYDROXYCOUMARINS] = 186 µmolequiv/g
• O=c1oc2ccccc2c(O)c1-c1ccc(Cl)cc1 = 50 µmolequiv/g
• Cc1cc(=O)oc2cc(O)ccc12 [HYMECROMONE] = 54.8 µmolequiv/g
